// provenance: patent US9434711B2

molecular target: canine TRPM8 (Canis lupus familiaris, UniProt Q1A7N1); assay: In Vitro Canine TRPM8 Functional Assay (Ca2+ fluorescence, icilin activation); format: cell-based; details: compound at 0.2 μM; canine TRPM8, icilin activation; read-out: % Inh @ 0.2
Sequence (Q1A7N1 1-1104): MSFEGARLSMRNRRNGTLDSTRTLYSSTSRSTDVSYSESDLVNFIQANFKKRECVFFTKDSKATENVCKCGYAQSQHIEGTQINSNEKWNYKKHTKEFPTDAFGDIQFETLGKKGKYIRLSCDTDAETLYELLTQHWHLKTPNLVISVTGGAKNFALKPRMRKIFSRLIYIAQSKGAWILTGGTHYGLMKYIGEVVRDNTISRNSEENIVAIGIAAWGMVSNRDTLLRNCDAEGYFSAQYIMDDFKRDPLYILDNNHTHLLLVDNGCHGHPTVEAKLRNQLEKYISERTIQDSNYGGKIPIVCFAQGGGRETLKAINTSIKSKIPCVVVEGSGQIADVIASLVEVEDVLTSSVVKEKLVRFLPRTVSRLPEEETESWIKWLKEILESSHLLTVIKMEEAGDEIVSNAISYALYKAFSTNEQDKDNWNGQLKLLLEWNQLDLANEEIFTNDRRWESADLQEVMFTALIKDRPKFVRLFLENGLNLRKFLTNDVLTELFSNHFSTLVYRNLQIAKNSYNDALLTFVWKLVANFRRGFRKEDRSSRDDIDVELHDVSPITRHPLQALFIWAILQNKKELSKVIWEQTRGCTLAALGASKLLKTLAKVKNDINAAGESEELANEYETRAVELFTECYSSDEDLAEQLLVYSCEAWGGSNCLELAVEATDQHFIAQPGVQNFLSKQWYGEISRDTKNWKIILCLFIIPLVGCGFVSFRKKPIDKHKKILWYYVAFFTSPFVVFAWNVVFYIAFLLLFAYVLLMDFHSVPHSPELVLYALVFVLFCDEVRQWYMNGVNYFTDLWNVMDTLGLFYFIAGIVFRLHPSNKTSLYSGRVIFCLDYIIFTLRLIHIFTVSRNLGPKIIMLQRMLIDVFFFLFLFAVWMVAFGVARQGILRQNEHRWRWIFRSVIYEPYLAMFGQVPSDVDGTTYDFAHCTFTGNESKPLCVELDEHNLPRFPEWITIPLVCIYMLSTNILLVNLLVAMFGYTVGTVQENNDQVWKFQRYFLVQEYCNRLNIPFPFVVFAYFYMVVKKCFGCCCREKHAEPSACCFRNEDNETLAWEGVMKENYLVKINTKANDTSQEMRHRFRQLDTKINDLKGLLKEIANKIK
assay metric: inhibition at 0.2 µM (%)

Some entries whose results are on file:
[[record]]
compound = "O=S(=O)(c1cccnc1)N(Cc1cc(Cl)ccc1F)c1sc2ccccc2c1Br [Compound 324]"
assayed_target = "canine TRPM8 (Canis lupus familiaris, UniProt Q1A7N1)"
assay_metric = "inhibition at 0.2 µM"
readout_unit = "%"
obs_value = 100

[[record]]
compound = "O=S(=O)(c1ccsc1)N(Cc1ccc(F)c(C(F)(F)F)c1)c1sc2ccccc2c1Cl [Compound 187]"
assayed_target = "canine TRPM8 (Canis lupus familiaris, UniProt Q1A7N1)"
assay_metric = "inhibition at 0.2 µM"
readout_unit = "%"
obs_value = 100

[[record]]
compound = "CNc1ccc(S(=O)(=O)N(CCC2CC2)c2sc3ccccc3c2Br)cc1 [Compound 693]"
assayed_target = "canine TRPM8 (Canis lupus familiaris, UniProt Q1A7N1)"
assay_metric = "inhibition at 0.2 µM"
readout_unit = "%"
obs_value = 103

[[record]]
compound = "Cc1nc(C)c(S(=O)(=O)N(Cc2ccc(F)c(C(F)(F)F)c2)c2sc3ccccc3c2C)s1 [Compound 75]"
assayed_target = "canine TRPM8 (Canis lupus familiaris, UniProt Q1A7N1)"
assay_metric = "inhibition at 0.2 µM"
readout_unit = "%"
obs_value = 98


[I] N#Cc1cccc(S(=O)(=O)N(CCC(F)(F)F)c2cc3ccccc3s2)c1 [Compound 573]
[II] Cc1c(N(Cc2ccc(F)c(F)c2)S(C)(=O)=O)sc2ccccc12 [Compound 367]
Request: Two entries are listed, I and II . Which one carries the higher inhibition at 0.2 µM? // caller expects the label of the chosen entry
Response: II
(II: 91%, I: 28%)

[a] N#Cc1ccc(S(=O)(=O)N(Cc2ccc(F)c(C(F)(F)F)c2)c2cc3ccccc3s2)cc1 [Compound 411]
[b] CCS(=O)(=O)N(Cc1cccc(OC)c1F)c1sc2ccccc2c1C(C)(C)O [Compound 776]
Request: Which has the smaller recorded inhibition at 0.2 µM, a or b ? // caller expects the label of the chosen entry
Response: a
(a: 43%, b: 95%)

====

molecular target: UniProtKB Q1A7N1; test: In Vitro Canine TRPM8 Functional Assay (Ca2+ fluorescence, icilin activation); assay type: cell-based; conditions: compound at 0.5 μM; canine TRPM8, icilin activation; read-out: % Inh @ 0.5
assay metric: inhibition at 0.5 µM (%)

[[record]]
chemical_structure = "Cc1c(N(Cc2ccc(F)c(F)c2)S(=O)(=O)c2ccccc2)sc2ccccc12"
obs_value = 99

[[record]]
chemical_structure = "Cc1c(N(Cc2ccc(F)c(F)c2)S(=O)(=O)c2cc3ccccc3s2)sc2ccccc12"
obs_value = 94

[[record]]
chemical_structure = "COc1ccc(CN(c2cc3ccccc3s2)S(=O)(=O)c2ccccc2)cc1"
obs_value = 90

[[record]]
chemical_structure = "Cc1c(N(Cc2ccc(OC(F)(F)F)cc2)S(=O)(=O)c2cn(C)cn2)sc2ccccc12"
obs_value = 97


====

molecular target: canine TRPM8 (Canis lupus familiaris); assay: In Vitro Canine TRPM8 Functional Assay (Ca2+ fluorescence, icilin activation); assay type: cell-based; conditions: HEK293 cells stably expressing canine TRPM8; icilin activation; eight-point dose-response; read-out: IC50
assay metric: IC50 (µM)

Some entries whose results are on file:
[[record]]
chemical_structure = "Cc1c(N(CCCCC(F)(F)F)S(=O)(=O)c2ccc(N(C)C)cc2)sc2ccccc12"
obs_value = 0.0053

[[record]]
chemical_structure = "CCCCN(c1sc2ccccc2c1C(C)(C)O)S(=O)(=O)c1ccc(C(=O)OC)cc1"
obs_value = 0.019

[[record]]
chemical_structure = "Cc1c(N(Cc2ccc(F)c(C(F)(F)F)c2)S(=O)(=O)c2ccc(C(=O)O)c(F)c2)sc2ccccc12"
obs_value = 0.0016


[P] Cc1c(N(Cc2ccc(F)cc2)S(=O)(=O)c2ccc(C(=O)O)cc2)sc2ccccc12
[Q] Cc1c(N(Cc2ccc(F)c(C(F)(F)F)c2)S(=O)(=O)c2cccc(-c3nnn[nH]3)c2)sc2ccccc12
[R] Cc1c(N(CCC2CC2)S(=O)(=O)c2nc3ccccc3[nH]2)sc2ccccc12
[S] Cc1c(N(Cc2cccc3cccnc23)S(=O)(=O)c2cccnc2)sc2ccccc12
[T] CN(C)CCN(c1sc2ccccc2c1Cl)S(=O)(=O)c1ccccc1
Request: Arrange by IC50, high to low. Return value: ordered labels per request.
Response: T, R, Q, S, P
(T: 0.17 µM, R: 0.0903 µM, Q: 0.036 µM, S: 0.0189 µM, P: 0.002 µM)
